All values here come from ChEMBL document CHEMBL3616402.

Provide the recorded IC50 for the entries that follow.
# Assayed system: Glucagon receptor (Homo sapiens, UniProt P47871)
# Sequence (P47871 whole entry): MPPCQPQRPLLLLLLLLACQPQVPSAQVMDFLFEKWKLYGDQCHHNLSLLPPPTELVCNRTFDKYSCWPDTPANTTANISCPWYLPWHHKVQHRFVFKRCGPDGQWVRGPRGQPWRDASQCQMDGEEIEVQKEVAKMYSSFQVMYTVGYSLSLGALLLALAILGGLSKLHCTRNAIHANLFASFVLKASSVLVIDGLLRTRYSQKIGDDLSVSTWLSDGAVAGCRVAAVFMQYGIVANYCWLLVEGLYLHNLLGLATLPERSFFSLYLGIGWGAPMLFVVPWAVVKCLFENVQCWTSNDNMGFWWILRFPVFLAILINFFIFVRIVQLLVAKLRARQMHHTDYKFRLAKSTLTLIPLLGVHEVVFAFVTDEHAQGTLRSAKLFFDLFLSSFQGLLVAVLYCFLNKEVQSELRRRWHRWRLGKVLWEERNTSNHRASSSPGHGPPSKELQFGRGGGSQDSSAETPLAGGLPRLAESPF
# Experimental details: Antagonist activity against human glucagon receptor expressed in CHO cells assessed as reduction in glucagon-induced cAMP production
# Assay type: functional, cell-based

Check out these entries, answers already filled in.
CCCCC(c1ccc(C(=O)NCCC(=O)O)cc1)n1nc(-c2cc(C(F)(F)F)ccc2OC)c2ccc(-c3ccc(C)cc3)cc21 (stereo not given) = 0.0066 µM
CC(c1ccc(C(=O)NCCC(=O)O)cc1)n1nc(-c2cc(C(F)(F)F)ccc2F)c2ccc(-c3ccc(OC(F)(F)F)cc3)cc21 (stereo not given) = 0.12 µM
CC(c1ccc(C(=O)NCCC(=O)O)cc1)n1nc(-c2cc(Cl)ccc2C(N)=O)c2ccc(-c3ccc(OC(F)(F)F)cc3)cc21 (stereo not given) = 0.22 µM
COc1ccc(C(F)(F)F)cc1-c1nn(Cc2ccc(C(=O)NCCC(=O)O)cc2)c2cc(-c3ccc(C)cc3)ccc12 = 0.14 µM
CC(c1ccc(C(=O)NCCC(=O)O)cc1)n1nc(-c2ccc(Cl)cc2Cl)c2ccc(-c3ccc(OC(F)(F)F)cc3)cc21 (stereo not given) = 0.041 µM
CC(c1ccc(C(=O)NCCC(=O)O)cc1)n1nc(-c2ccc(C#N)cc2)c2ccc(-c3ccc(OC(F)(F)F)cc3)cc21 (stereo not given) = 0.043 µM
COc1cncc(-c2nn(C(C)c3ccc(C(=O)NCCC(=O)O)cc3)c3cc(-c4ccc(OC(F)(F)F)cc4)ccc23)c1 (stereo not given) = 0.1 µM
CC(c1ccc(C(=O)NCCC(=O)O)cc1)n1nc(-c2cc(F)cc(F)c2F)c2ccc(-c3ccc(OC(F)(F)F)cc3)cc21 (stereo not given) = 0.052 µM

Please give IC50 for each item listed below.
1. CCCCC(c1ccc(C(=O)NCCC(=O)O)cc1)n1nc(-c2cc(C(F)(F)F)ccc2OC)c2ccc(-c3ccc(C)s3)cc21 (stereo not given)
2. CCCC(c1ccc(C(=O)NCCC(=O)O)cc1)n1nc(-c2cc(C(F)(F)F)ccc2OC)c2ccc(-c3ccc(C)cc3)cc21 (stereo not given)
3. CCCC(c1ccc(C(=O)NCCC(=O)O)cc1)n1nc(-c2cc(C(F)(F)F)ccc2OC)c2ccc(-c3ccc(OC(F)(F)F)cc3)cc21 (stereo not given)
4. CCCC(c1ccc(C(=O)NCCC(=O)O)cc1)n1nc(-c2cc(C(F)(F)F)ccc2OC)c2cc(-c3ccc(OC)cc3)ccc21 (stereo not given)
5. CCCC(c1ccc(C(=O)NCCC(=O)O)cc1)n1cc(-c2cc(C(F)(F)F)ccc2OC)c2ccc(-c3ccc(OC)cc3)cc21 (racemic)
6. CC(c1ccc(C(=O)NCCC(=O)O)cc1)n1nc(-c2ccc(Cl)c(F)c2)c2ccc(-c3ccc(OC(F)(F)F)cc3)cc21 (stereo not given)
7. COc1ccc(OC(F)(F)F)cc1-c1nn(C(C)c2ccc(C(=O)NCCC(=O)O)cc2)c2cc(-c3ccc(OC(F)(F)F)cc3)ccc12 (stereo not given)

RESULT:
0.018 µM
0.005 µM
0.0056 µM
0.026 µM
0.13 µM
0.044 µM
0.011 µM
